Each recorded value in this set is attributed to patent US10544106B2.

Target: BTK (Homo sapiens (Human))
Experiment: Z'-LYTE kinase inhibition assay against BTK
Type: biochemical
Conditions: compound at 100 nM; ATP concentration at Km
EXPERIMENTAL_ENDPOINT: inhibition at 0.1 µM

Some solved entries appear below for comparison.
COMPOUND	EXPERIMENTAL_ENDPOINT	MEASURED_RESULT
C=CC(=O)Nc1cccc(-c2cc(-c3ccc(Oc4cc(C(F)(F)F)ccn4)cc3F)c(N)c3cncnc23)c1 [C187]	inhibition at 0.1 µM	< 50%
C=CC(=O)Nc1cccc(-c2cc(-c3ccc(Oc4ccccn4)c(OC)c3)cc3cncnc23)c1 [C119]	inhibition at 0.1 µM	> 50%

Which inhibition at 0.1 µM value is on record for C=CC(=O)N1CCC(c2cc(-c3ccc(C(=O)Nc4cc(OC)ccn4)c(F)c3)n3cnccc23)C1 (centres unmarked) [C148] ?
< 50%

I am curious: what inhibition at 0.1 µM value has been reported for C=CC(=O)Nc1cccc(-c2cc(-c3ccccc3)cc3cnc(-c4ccccc4)nc23)c1 [C001] ?
< 50%

What value of measured inhibition at 0.1 µM is listed for C=CC(=O)N1CCC(c2nc(-c3ccc(Oc4cc(OC)ccn4)c(F)c3)n3c(N)nccc23)C1 (centres unmarked) [C216] ?
> 50%

Requested field: inhibition at 0.1 µM. Item: C=CC(=O)Nc1cccc(-c2cc(-c3cccc(Nc4cccc(C(F)(F)F)c4)c3)cc3cncnc23)c1 [C011]
< 50%

// query inhibition at 0.1 µM value for entry C=CC(=O)N1CCC(c2nc(-c3ccc(Oc4ncccc4F)cc3)n3c(N)nccc23)C1 (centres unmarked) [C226]
> 50%

* * *

Molecular target: EGFR (ErbB1) L858R (Homo sapiens (Human), UniProt P00533, L858R)
Sequence (P00533 25-1210 L858R): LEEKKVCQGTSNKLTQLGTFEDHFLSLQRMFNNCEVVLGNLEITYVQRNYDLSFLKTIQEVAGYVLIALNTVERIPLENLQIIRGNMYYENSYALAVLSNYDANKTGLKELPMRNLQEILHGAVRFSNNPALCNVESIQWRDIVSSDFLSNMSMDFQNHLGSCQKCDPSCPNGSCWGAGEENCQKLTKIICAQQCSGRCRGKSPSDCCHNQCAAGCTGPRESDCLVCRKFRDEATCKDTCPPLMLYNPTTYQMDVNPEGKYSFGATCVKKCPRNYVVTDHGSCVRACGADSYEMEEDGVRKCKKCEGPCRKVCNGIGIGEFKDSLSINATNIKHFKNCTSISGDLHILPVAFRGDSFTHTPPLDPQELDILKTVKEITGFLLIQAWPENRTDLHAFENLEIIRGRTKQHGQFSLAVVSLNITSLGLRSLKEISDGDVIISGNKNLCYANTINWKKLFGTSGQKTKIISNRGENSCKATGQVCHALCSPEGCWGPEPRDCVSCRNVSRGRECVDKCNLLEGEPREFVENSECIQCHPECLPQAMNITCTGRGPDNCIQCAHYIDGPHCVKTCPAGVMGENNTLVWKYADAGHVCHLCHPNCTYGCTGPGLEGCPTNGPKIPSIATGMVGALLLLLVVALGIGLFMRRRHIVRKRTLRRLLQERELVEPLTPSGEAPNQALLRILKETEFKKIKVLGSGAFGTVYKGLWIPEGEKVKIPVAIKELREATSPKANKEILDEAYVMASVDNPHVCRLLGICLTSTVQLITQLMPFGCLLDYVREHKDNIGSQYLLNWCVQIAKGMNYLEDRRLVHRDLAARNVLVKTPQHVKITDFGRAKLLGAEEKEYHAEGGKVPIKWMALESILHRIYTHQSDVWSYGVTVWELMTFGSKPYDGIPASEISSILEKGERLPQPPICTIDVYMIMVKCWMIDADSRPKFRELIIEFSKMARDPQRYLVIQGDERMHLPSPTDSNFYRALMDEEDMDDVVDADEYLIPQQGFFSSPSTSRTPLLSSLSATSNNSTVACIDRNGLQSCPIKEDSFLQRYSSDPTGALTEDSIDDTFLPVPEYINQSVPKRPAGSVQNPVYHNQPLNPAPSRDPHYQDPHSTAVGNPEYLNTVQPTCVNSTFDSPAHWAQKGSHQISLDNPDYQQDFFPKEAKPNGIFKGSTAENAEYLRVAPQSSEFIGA
Test: Z'-LYTE kinase inhibition assay against EGFR L858R
Format: biochemical
Conditions: compound at 100 nM; ATP concentration at Km
# maps each entry to its inhibition at 0.1 µM

Record request: inhibition at 0.1 µM value, item C=CC(=O)Nc1cccc(-c2cc(-c3ccccc3)cc3cnc(Nc4ccccc4)nc23)c1
> 50%

# query: inhibition at 0.1 µM of entry C=CC(=O)N1CCC(c2cc(-c3ccc(C(=O)Nc4cc(Cl)ccn4)cc3)n3cnccc23)C1 (stereo not shown)
< 50%

Requested read-out: inhibition at 0.1 µM. Entry: C=CC(=O)Nc1cccc(-c2cc(-c3ccc(C(=O)Nc4ccccn4)cc3Cl)cc3cncnc23)c1
< 50%

Param item = C=CC(=O)N1CCCC(c2cc(-c3ccc(C)nc3)cc3cnc(N)nc23)C1 (stereo not shown) ; retrieve measured inhibition at 0.1 µM.
< 50%

Given the compound C=CC(=O)Nc1cccc(-c2cc(-c3ccccc3Cl)cc3cnc(N)nc23)c1 , what is its reported inhibition at 0.1 µM?
> 50%

Look up inhibition at 0.1 µM: C=CC(=O)Nc1cccc(-c2cc(-c3cccc(F)c3)cc3cncnc23)c1
> 50%

Entry under review: C=CC(=O)Nc1cccc(-c2cc(-c3ccc(C(=O)Nc4ccccn4)cc3)cc3cncnc23)c1 . Reported inhibition at 0.1 µM?
< 50%

* * *

Listing of entries alongside the reported inhibition at 0.1 µM.
Target: BTK (Homo sapiens (Human), UniProt Q06187)
Sequence (Q06187 whole entry): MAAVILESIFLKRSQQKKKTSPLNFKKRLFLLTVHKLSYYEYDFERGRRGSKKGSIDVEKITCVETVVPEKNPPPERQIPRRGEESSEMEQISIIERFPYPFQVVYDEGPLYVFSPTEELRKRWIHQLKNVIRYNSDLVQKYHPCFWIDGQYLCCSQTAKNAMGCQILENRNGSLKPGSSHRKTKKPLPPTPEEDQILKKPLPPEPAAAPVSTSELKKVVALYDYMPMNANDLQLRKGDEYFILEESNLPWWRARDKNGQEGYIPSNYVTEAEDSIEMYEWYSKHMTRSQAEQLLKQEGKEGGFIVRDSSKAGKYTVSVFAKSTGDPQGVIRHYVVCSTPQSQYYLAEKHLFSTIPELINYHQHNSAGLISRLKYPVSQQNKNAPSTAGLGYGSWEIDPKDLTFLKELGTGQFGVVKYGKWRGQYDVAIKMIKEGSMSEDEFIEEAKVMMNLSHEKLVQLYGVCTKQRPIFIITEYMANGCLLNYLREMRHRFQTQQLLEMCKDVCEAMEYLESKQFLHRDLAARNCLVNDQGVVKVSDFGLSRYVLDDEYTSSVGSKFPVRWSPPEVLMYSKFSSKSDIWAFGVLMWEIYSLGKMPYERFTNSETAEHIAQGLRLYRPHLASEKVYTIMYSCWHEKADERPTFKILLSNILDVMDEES
Experiment: Z'-LYTE kinase inhibition assay against BTK
Assay type: biochemical
Details: compound at 100 nM; ATP concentration at Km

Below are worked cases with known answers.
COMPOUND	inhibition at 0.1 µM
C=CC(=O)N1CCC(c2nc(-c3ccc(C(=O)Nc4ccccn4)cc3)n3c(N)nccc23)C1 (stereo not shown)	> 50%
C=CC(=O)Nc1cccc(-c2cc(-c3ccc(C(=O)Nc4cc(C(F)(F)F)ccn4)cc3)cc3cncnc23)c1	> 50%
C=CC(=O)Nc1cccc(-c2cc(-c3cccc(Nc4ccccc4)c3)cc3c(N)ncnc23)c1	< 50%
C=CC(=O)N1CCC(c2cc(-c3ccc(Oc4ccccc4)nc3)cc3cncnc23)C1 (stereo not shown)	< 50%
C=CC(=O)N1CCC(c2cc(-c3ccc(C(=O)Nc4ccnnc4)cc3)cc3cncnc23)C1 (stereo not shown)	< 50%
C=CC(=O)Nc1cccc(-c2cc(-c3ccc(C(=O)Nc4ccccn4)c(Cl)c3)cc3cncnc23)c1	> 50%

Query (compound): C=CC(=O)N1CCCC(c2cc(-c3ccccc3)cc3c(N)ncnc23)C1 (stereo not shown) ; field requested: inhibition at 0.1 µM
< 50%

Which value of inhibition at 0.1 µM has been reported for C=CC(=O)N1CCC(c2nc(-c3ccc(Oc4ccccn4)c(OC)c3)n3c(N)nccc23)C1 (stereo not shown) in the records?
> 50%

Requested read-out: inhibition at 0.1 µM. Entry: C=CC(=O)Nc1cccc(-c2cc(-c3ccc(Oc4ccccn4)cc3F)cc3cnc(N)nc23)c1
> 50%

Fill blank: measured inhibition at 0.1 µM of the compound C=CC(=O)N1CCC(c2cc(-c3ccc(C(=O)Nc4cc(C#N)ccn4)cc3)n3cnccc23)C1 (stereo not shown) is ____.
> 50%

// lookup inhibition at 0.1 µM for C=CC(=O)N1CCC(n2c(-c3ccccc3Cl)nc3cnc(N)nc32)C1 (stereo not shown)
< 50%
